measured_property: glass transition temperature (°C)

compound | measured_property | reported_measurement
*O[Si](*)(C)CCCCCCOC(=O)c1cc(OC(=O)c2ccc(OCCOCCOCCOCCOCCOCCOC)cc2)ccc1OC(=O)c1ccc(OCCOCCOCCOCCOCCOCCOC)cc1 (repeat unit) | glass transition temperature | -50.00

I = *c1ccc(Oc2ccc(C(C)(C)c3ccccc3)cc2)c(-n2c(=O)c3cc4c(=O)n(*)c(=O)c4cc3c2=O)c1 (repeat unit)
II = *Oc1ccc(C(C)(C)c2ccc(Oc3ccc(C(=O)Nc4ccc(NC(=O)c5ccc(*)cc5)cc4)cc3)cc2)cc1 (repeat unit)
Task item: Of I and II , which one carries the higher reported glass transition temperature? // output: label of the selected item
Reply: I
